Cited source for all entries: ChEMBL document CHEMBL4152291

- assay explanation: Growth inhibition of human LO2 cells at 2.5 ug/ml after 72 hrs by MTT assay relative to control
- Type: cell-based, L02
- setup conditions: read-out: GI
Measured inhibition at 72 h, 2.5 ug/ml by item
Give the value, in units of %, as a plain number.

Some molecules with recorded inhibition at 72 h, 2.5 ug/ml:
[[record]]
molecule = "COC(=O)CSC(=S)N1CCN(C2=C(Br)C(=O)O[C@@H]2O[C@@H]2C[C@H](C)CC[C@H]2C(C)C)CC1"
unit_name = "%"
measurement = 15

[[record]]
molecule = "CC[C@]1(O)C[C@H]2CN(CCc3c([nH]c4ccccc34)[C@@](C(=O)OC)(c3cc4c(cc3OC)N(C=O)[C@H]3[C@@](O)(C(=O)OC)[C@H](OC(C)=O)[C@]5(CC)C=CCN6CC[C@]43[C@@H]65)C2)C1 [VINCRISTINE]"
unit_name = "%"
measurement = 11.5

[[record]]
molecule = "CC(C)[C@@H]1CC[C@@H](C)C[C@H]1O[C@H]1OC(=O)C(Br)=C1N1CCN(C(=S)SCc2ccccc2)CC1"
unit_name = "%"
measurement = 15.6

[[record]]
molecule = "C=CCSC(=S)N1CCN(C2=C(Br)C(=O)O[C@@H]2O[C@@H]2C[C@H](C)CC[C@H]2C(C)C)CC1"
unit_name = "%"
measurement = 11.2


Next molecule, inhibition at 72 h, 2.5 ug/ml to be filled in.
// query Note inhibition at 72 h, 2.5 ug/ml for the molecule shown: Nc1ccn([C@@H]2O[C@H](CO)[C@@H](O)[C@@H]2O)c(=O)n1 [CYTARABINE]
// result 18.8
